B1: INTS3 (parent)
chain: YPPLEGHVRQGVFSSLNHIVEKRV

Variants of: B1
Assay Info: protein stability index of a GFP-peptide fusion (GPS, HEK-293T) (PSI 1-6); higher = more stable;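 note: lentivirally expressed fusions sorted by FACS into six bins by GFP to DsRed ratio, PSI derived from sequencing read proportions per bin multiplied by bin number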
Run Conditions: c terminus: a fixed tail appended
Outcome: 1.0 for protein stability index of at least 3; 0.0 for anything lower.

* YPPLEGHVNQGVFSSLNHIVEKRV [R9N] | 0.0
* YPPLEGHVRQGVFSSLNHHVEKRV [I19H] | 0.0
* YPPLEGHVRQGVFSSLNHIVHKRV [E21H] | 0.0
* YPPLEGHVRQGVFSSLNHIVELRV [K22L] | 0.0
* YPPLEGHVRQGVFSSLNHIVEKYV [R23Y] | 0.0
* YPPLEGHVRQGVFSSLNQIVEKRV [H18Q] | 0.0
* YPPCEGHVRQGVFSSLNHIVEKRV [L4C] | 0.0
* YPPLEGHVRQGVFSSLNHIVEKRE [V24E] | 1.0
* YDPLEGHVRQGVFSSLNHIVEKRV [P2D] | 1.0
* YPPLEGHVRQGVFSSLNHIPEKRV [V20P] | 0.0
* YPPLEGHVRQGVFSSLTHIVEKRV [N17T] | 0.0
* YPPLEGHQRQGVFSSLNHIVEKRV [V8Q] | 0.0
* YPPLEGHVRQGVFSSLLHIVEKRV [N17L] | 0.0
* YPPLEGHVRQGVFTSLNHIVEKRV [S14T] | 0.0
* YPPLEGHVRQGVFSSLNHIVEKRS [V24S] | 0.0
* YPPLEGHVRDGVFSSLNHIVEKRV [Q10D] | 1.0
* YPPLEGHVRQGVFSSLNHDVEKRV [I19D] | 1.0
* YPPLEGHKRQGVFSSLNHIVEKRV [V8K] | 0.0
